Biological target: Beta-2 adrenergic receptor (Homo sapiens)
Sequence (P07550 whole entry): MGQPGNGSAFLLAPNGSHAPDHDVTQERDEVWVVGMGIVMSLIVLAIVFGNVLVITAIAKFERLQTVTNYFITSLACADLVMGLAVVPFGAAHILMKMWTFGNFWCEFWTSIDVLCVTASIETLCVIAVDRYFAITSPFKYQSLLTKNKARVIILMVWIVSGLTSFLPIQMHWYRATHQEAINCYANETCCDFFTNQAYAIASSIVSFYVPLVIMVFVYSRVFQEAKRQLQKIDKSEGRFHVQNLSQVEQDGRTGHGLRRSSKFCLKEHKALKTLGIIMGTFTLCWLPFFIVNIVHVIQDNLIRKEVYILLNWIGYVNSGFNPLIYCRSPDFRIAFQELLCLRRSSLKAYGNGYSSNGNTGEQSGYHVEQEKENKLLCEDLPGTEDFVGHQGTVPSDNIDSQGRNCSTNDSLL
Experiment: Agonist activity at Homo sapiens (human) beta2 adrenoreceptor
measured quantity: pEC50
Schema: pEC50 number; meaning minus log10 of the concentration expressed in molar units.

Q) State the measured pEC50 (Beta-2 adrenergic receptor (Homo sapiens)) of `C[C@H](Cc1c[nH]c2c(OS(=O)(=O)c3ccccc3)cccc12)NC[C@H](O)c1cccc(NS(=O)(=O)c2cccs2)c1`
A) 7.14

Q) Give pEC50 for `CCOC(=O)S(=O)(=O)Oc1cccc2c(C[C@@H](C)NC[C@H](O)c3cccc(NS(=O)(=O)c4cccs4)c3)c[nH]c12` tested on Beta-2 adrenergic receptor (Homo sapiens).
A) 7.24

Q) With Beta-2 adrenergic receptor (Homo sapiens) as the test system, provide measured pEC50 for this molecule: `CCCCCCCCS(=O)(=O)Oc1cccc2c(C[C@@H](C)NC[C@H](O)c3cccc(NS(=O)(=O)c4cccs4)c3)c[nH]c12`
A) 7.70

Q) State, for Beta-2 adrenergic receptor (Homo sapiens), measured pEC50 of the molecule listed here: COc1cccc2c(CC(C)NC[C@H](O)c3cccc(Cl)c3)c[nH]c12 (stereo partly specified)
A) 8.28

Q) Retrieve pEC50 on Beta-2 adrenergic receptor (Homo sapiens); query `C[C@H](Cc1c[nH]c2c(OS(C)(=O)=O)cccc12)NC[C@H](O)c1cccc(NS(=O)(=O)c2cccc(N)c2)c1`
A) 7.59

Q) Provide pEC50, tested on Beta-2 adrenergic receptor (Homo sapiens), for `CCN(CC)C(=O)COc1cccc2c(C[C@@H](C)NC[C@H](O)c3cccc(NS(=O)(=O)c4cccs4)c3)c[nH]c12` .
A) 7.72

Q) Enter recorded pEC50 with Beta-2 adrenergic receptor (Homo sapiens) for `C[C@H](Cc1c[nH]c2c(OS(C)(=O)=O)cccc12)NC[C@H](O)c1cccc(NS(=O)(=O)c2cccs2)c1` here.
A) 7.36

Q) Jot down pEC50 (Beta-2 adrenergic receptor (Homo sapiens)) of `C[C@H](Cc1cn2c3c(cccc13)OCCC2)NC[C@H](O)c1cccc(NS(=O)(=O)c2cccs2)c1` .
A) 7.28

Q) Please look at `C[C@H](Cc1c[nH]c2ccccc12)NC[C@H](O)c1cccc(NS(=O)(=O)c2cccs2)c1` and tell me its recorded pEC50 on Beta-2 adrenergic receptor (Homo sapiens).
A) 7.18

Q) Please report pEC50 with Beta-2 adrenergic receptor (Homo sapiens) for item `COc1cccc2c(C[C@@H](C)NC[C@H](O)c3cccc(NS(=O)(=O)c4cccs4)c3)cn(Cc3ccccc3)c12` .
A) 7.49

Q) Output reported pEC50 of the molecule `C[C@H](Cc1c[nH]c2c(OS(=O)(=O)c3cccnc3)cccc12)NC[C@H](O)c1cccc(NS(=O)(=O)c2cccs2)c1` on Beta-2 adrenergic receptor (Homo sapiens).
A) 7.66

Q) Fill in: pEC50 on Beta-2 adrenergic receptor (Homo sapiens), entry `C[C@H](Cc1c[nH]c2c(OCC(=O)O)cccc12)NC[C@H](O)c1cccc(NS(=O)(=O)c2cccs2)c1`
A) 6.74

Q) Give Beta-2 adrenergic receptor (Homo sapiens) pEC50 for the following molecule: `COc1cccc2c(C[C@@H](C)NC[C@H](O)c3cccc(NS(=O)(=O)c4cccs4)c3)c[nH]c12`
A) 7.54

Q) Name the recorded pEC50 of `C/C=C/CNc1cccc([C@@H](O)CN[C@H](C)Cc2c[nH]c3c(OS(C)(=O)=O)cccc23)c1` , assay system Beta-2 adrenergic receptor (Homo sapiens).
A) 6.77

Q) Provide pEC50, tested on Beta-2 adrenergic receptor (Homo sapiens), for `C[C@H](Cc1c[nH]c2c(OS(C)(=O)=O)cccc12)NC[C@H](O)c1ccc(C(=O)Nc2ccccc2)cc1` .
A) 6.92

Q) Look up and report pEC50, with Beta-2 adrenergic receptor (Homo sapiens) as system, for `CC(C)=CCNc1cccc([C@@H](O)CN[C@H](C)Cc2c[nH]c3c(OS(C)(=O)=O)cccc23)c1`
A) 6.80

Q) Give measured pEC50 for `C#CCNc1cccc([C@@H](O)CN[C@H](C)Cc2c[nH]c3c(OS(C)(=O)=O)cccc23)c1` (Beta-2 adrenergic receptor (Homo sapiens)).
A) 7.35

Q) # return pEC50 of `CCCCS(=O)(=O)Oc1cccc2c(C[C@@H](C)NC[C@H](O)c3cccc(NS(=O)(=O)c4cccs4)c3)c[nH]c12` (system: Beta-2 adrenergic receptor (Homo sapiens))
A) 7.59

Q) Enter recorded pEC50 with Beta-2 adrenergic receptor (Homo sapiens) for `C[C@H](Cc1c[nH]c2c(OS(=O)(=O)c3cccs3)cccc12)NC[C@H](O)c1cccc(NS(=O)(=O)c2cccs2)c1` here.
A) 7.31

Q) Give pEC50 only, for `C[C@H](Cc1c[nH]c2c(OS(C)(=O)=O)cccc12)NC[C@H](O)c1ccc(S(=O)(=O)Nc2ccccc2)cc1` , using Beta-2 adrenergic receptor (Homo sapiens) data.
A) 7.89

Q) Provide pEC50, tested on Beta-2 adrenergic receptor (Homo sapiens), for CC(Cc1c[nH]c2c(OCC(=O)O)cccc12)NC[C@H](O)c1cccc(Cl)c1 (stereo partly specified) .
A) 7.89
